Let's look at some compounds and their measured 532-nm Δτ, Repeat 1.
system: TMR-cC0-C2; experiment: Selleck library HTS, 532 nm excitation (FLT of TMR-cC0-C2 in presence of FMAL-actin); format: binding, human; conditions: initial screen, 30 μM compound
State the answer as a number, implicitly in ns.

INSERT INTO measurements (compound, unit_info, value) VALUES
  ('CC1(C)CCC(C)(C)c2cc(NC(=O)c3ccc(C(=O)O)cc3)ccc21 [Tamibarotene]', 'ns', 0.075),
  ('C[C@H](CCC(=O)O)[C@H]1CC[C@H]2[C@@H]3C[C@H](O)[C@@H]4C[C@H](O)CC[C@]4(C)[C@H]3CC[C@]12C [Hyodeoxycholic acid (HDCA), Hyodeoxycholic acid]', 'ns', -0.021),
  ('O=C(Nc1cccc2c(=O)cc(-c3nnn[nH]3)oc12)c1ccc(OCCCCc2ccccc2)cc1 [Pranlukast]', 'ns', 0.073),
  ('CCN(CC)CCCC(C)Nc1ccnc2cc(Cl)ccc12 (stereo not shown) [Chloroquine phosphate]', 'ns', 0.311),
  ('CC1=NN(c2ccc(C)c(C)c2)C(=O)/C1=N\Nc1cccc(-c2cccc(C(=O)O)c2)c1O [Eltrombopag olamine]', 'ns', -0.267);

Q) Which 532-nm Δτ, Repeat 1 is reported with TMR-cC0-C2 for this entry: NC(=O)c1cc[n+](CC2=C(C(=O)O)N3C(=O)[C@@H](NC(=O)[C@@H](c4ccccc4)S(=O)(=O)[O-])[C@H]3SC2)cc1 [Cefsulodin sodium] ?
A) 0.114

Q) Which 532-nm Δτ, Repeat 1 is reported with TMR-cC0-C2 for this entry: CC1(C)S[C@@H]2[C@H](NC(=O)[C@H](N)c3ccccc3)C(=O)N2[C@H]1C(=O)O [Ampicillin sodium] ?
A) 0.003
